# System: c-Abl (mouse)
# assay.overview: phosphorylation enrichment, bacterial display (enrichment ratio); higher = better substrate or ligand; peptides without Tyr show the background;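 further: 11-residue human phosphosite peptides and single-mutation variants displayed on the E. coli surface, counted by deep sequencing, each peptide's frequency after selection divided by its frequency in the unselected input library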;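 further: frequency after pTyr selection over input frequency; kinase dosed for 20-30% of maximal phosphorylation in three min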
readout: phosphorylation enrichment
Give bare numbers.

Observe how each entry below is paired with its result.
{"columns": ["sequence.record", "readout", "numeric.value"],
 "data": [
  ["ERTIEYLEEVV [HADHA_Y239_A244V]", "phosphorylation enrichment", 0.739],
  ["SEPSGYQDNIA [DES_Y363_A360P]", "phosphorylation enrichment", 0.753],
  ["QLYGAYLRIHA [BSCL2_Y213]", "phosphorylation enrichment", 0.915],
  ["FGGLRYGFGVL [KRTAP20-2_Y13_YF]", "phosphorylation enrichment", 0.608],
  ["RASGIYFVPKG [APBB1IP_Y340_YF]", "phosphorylation enrichment", 34.3],
  ["EPTPSYEVGQR [TSC2_Y1788_G1787S]", "phosphorylation enrichment", 0.627]
]}

For each of the sequences below, note its phosphorylation enrichment.
1. TTTQAYRVDER [PRKN_Y391]
2. TYGVAYRAKDK [CDK11B_Y453_V452A]
3. EAIMTYVSSFF [ACTN4_Y260_K255E_YF]

1. 0.714
2. 0.567
3. 0.842

# map each sequence to its phosphorylation enrichment
1. AATTAYSKPKR [MAP3K7_Y405]
2. QQTFTYDSGIH [JUP_Y22_YF]

[0.509, 0.999]

Would you mind listing phosphorylation enrichment for each of the following sequences?
1. NHFKICNLCAE [PTEN_Y68_Y68C_YF]
2. HMRLRYLAAEE [CEP120_Y884_Q879H]
3. TFWKKYRTFWK [CCDC70_Y125]
4. TVLEHYRRTHC [MYBPC3_Y1119]
5. VPHECYAKVFD [ALB_Y394_D389V]
6. SECCKYKIDNP [OSMR_Y689]

1: 0.75; 2: 1.3; 3: 0.723; 4: 0.532; 5: 0.945; 6: 0.539

----------
# target.of.assay: FGFR1 (UniProt P11362)
# Sequence (P11362 whole entry, looked up): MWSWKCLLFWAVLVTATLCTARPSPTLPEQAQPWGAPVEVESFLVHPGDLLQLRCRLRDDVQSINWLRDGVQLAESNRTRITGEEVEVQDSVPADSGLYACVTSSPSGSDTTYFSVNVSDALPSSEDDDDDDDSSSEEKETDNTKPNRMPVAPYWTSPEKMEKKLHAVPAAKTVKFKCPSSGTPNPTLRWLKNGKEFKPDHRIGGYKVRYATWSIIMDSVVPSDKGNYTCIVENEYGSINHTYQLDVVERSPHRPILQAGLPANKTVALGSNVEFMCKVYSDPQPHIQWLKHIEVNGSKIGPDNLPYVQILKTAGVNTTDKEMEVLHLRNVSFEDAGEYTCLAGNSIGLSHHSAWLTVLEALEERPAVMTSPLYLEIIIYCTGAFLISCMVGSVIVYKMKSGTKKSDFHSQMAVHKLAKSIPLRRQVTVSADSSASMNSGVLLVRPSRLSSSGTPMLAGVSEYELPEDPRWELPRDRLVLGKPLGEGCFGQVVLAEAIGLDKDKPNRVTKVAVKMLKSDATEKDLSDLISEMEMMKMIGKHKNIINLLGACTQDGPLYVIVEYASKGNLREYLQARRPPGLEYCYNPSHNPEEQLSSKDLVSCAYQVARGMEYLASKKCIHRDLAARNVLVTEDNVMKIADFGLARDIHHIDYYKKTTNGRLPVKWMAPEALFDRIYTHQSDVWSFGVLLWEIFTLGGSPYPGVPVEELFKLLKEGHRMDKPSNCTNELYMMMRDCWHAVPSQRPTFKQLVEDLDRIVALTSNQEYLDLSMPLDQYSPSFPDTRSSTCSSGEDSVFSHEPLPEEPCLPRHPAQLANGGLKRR
# assay.overview: phosphorylation enrichment, bacterial display (enrichment ratio); higher = better substrate or ligand; peptides without Tyr show the background
Decision: phosphorylation enrichment compared against 0.5; not below it gives 1 (yes), below it gives 0 (no).

{"columns": ["sequence.record", "category"],
 "data": [
  ["LTAEVYFPSIK [C5orf64_Y60]", "1 (yes)"]
]}

Form field: phosphorylation enrichment at least 0.5? Entry: TRSYDYMEGED [FGF7_Y58_G62E]
1 (yes)

Entry REGAKYVSHSA [ASS1_Y113_G117S] : is its phosphorylation enrichment no less than 0.5?
0 (no)

Hello, I need to know if PGIRMYRVQFN [LRFN1_Y454_Q455R_YF] has measured phosphorylation enrichment not below 0.5. Thanks!
1 (yes)

----------
# Test system: c-Src
# assay.overview: phosphorylation enrichment, bacterial display (enrichment ratio); higher = better substrate or ligand; peptides without Tyr show the background
Consider the following sequences; for each one, report its phosphorylation enrichment.
Numbers only.

Completed entries (count: 7):
{"columns": ["sequence.record", "phosphorylation enrichment"],
 "data": [
  ["HRGSLYLAIEY [TEK_Y899_Y897S]", 0.734],
  ["FPKVRYHWLVL [APTX_Y214_A212V_YF]", 0.513],
  ["MDDDQYALLTA [EFCAB6_Y675_T680A]", 0.608],
  ["MTYMFYRENLR [NLRP14_Y443_V441M]", 2.72],
  ["NLMPAYYKCIQ [CYP21A2_Y190]", 0.51],
  ["TLNFCYQQVKS [PTK2_Y148_F147C]", 0.524],
  ["CSPLLYKVIMS [OR8D4_Y132_R133K]", 0.445]
]}

Which phosphorylation enrichment value belongs to HSFNSYTFPRL [PAK5_Y316_YF] ?
0.374
